Hello, the source for this data is patent US20220177587A1, in case you need it.

- measured target: huCTLA4 (Homo sapiens, UniProt P16410)
- Sequence (P16410 36-223): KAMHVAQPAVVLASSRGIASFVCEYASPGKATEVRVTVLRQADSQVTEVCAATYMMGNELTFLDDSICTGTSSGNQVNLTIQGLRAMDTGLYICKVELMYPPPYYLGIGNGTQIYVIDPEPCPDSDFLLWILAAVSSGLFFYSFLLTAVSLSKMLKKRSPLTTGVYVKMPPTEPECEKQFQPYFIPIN
- assay comment: Flow binding to CHO cells stably expressing CTLA4
- Set-up: huCTLA4 and huPD-L1, full-length mammalian surface expression constructs were generated; expressed in transfected cells; host or cells: CHO cells, lentiviral transduction, sorted to >98% purity
- condition summary: Table E25; linker variants; 33.3 nM; CHO cells stably expressing CTLA4
metric name: CTLA4 MFI at 33.3 nM
Answer with a bare number; do not write a unit.

[ask] Consider the molecule E35D/M47V/N48K/V68M/K89N EAAAK (protein, UniProt P33681 35-288, looked up, variant E35D M47V N48K V68M K89N, EAAAK linker) T-lymphocyte activation …: VIHVTKEVKEVATLSCGHNVSVEELAQTRIYWQKDKKMVLTMMSGDVKIWPEYKNRTIFDITNNLSIMILALRPSDEGTYECVVLKYENDAFKREHLAEVTLSVKADFPTPSISDFEIPTSNIRRIICSTSGGFPEPHLSWLENGEELNAINTTVSQDPETELYAVSSKLDFNMTTNHSFMCLIKYGHLRVNQTFNWNTTKQEHFPDNLLPSWAITLISVNGIFVICCLTYCFAPRCRERRRNERLRRESVRPV and give its measured CTLA4 MFI at 33.3 nM.
[reply] 27516
